# assay target: recombinant monomeric SARS-CoV-1 S1 protein (SARS-CoV-1, UniProt P59594 14-667)
# test method notes: flow cytometry, blocking of binding to hACE-2 cells
endpoint name: percent blocking
Answer by giving the amount and then stating its unit.

Prompt line: Consider the binder 1035740 (antibody, V domains shown) VH: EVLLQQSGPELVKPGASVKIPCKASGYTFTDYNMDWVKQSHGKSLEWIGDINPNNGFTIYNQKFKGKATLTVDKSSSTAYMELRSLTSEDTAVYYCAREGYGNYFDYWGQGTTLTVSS VL: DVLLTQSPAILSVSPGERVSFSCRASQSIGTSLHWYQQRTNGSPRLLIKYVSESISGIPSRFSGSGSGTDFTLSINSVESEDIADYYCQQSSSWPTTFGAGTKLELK and give its measured percent blocking.
Response line: 92.4%

Could you now look at the following binder, please?
Prompt line: Fill in: percent blocking of 1035716 (antibody, V domains shown) VH: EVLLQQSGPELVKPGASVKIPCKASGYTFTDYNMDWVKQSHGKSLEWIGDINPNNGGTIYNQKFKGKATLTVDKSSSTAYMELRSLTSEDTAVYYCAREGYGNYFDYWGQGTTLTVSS VL: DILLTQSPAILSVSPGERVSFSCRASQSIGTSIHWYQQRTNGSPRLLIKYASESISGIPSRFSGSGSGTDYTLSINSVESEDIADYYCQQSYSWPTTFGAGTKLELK is ___
Response line: 89.5%
